target: Botulinum neurotoxin type A (Clostridium botulinum (strain Hall / ATCC 3502 / NCTC 13319 / Type A), UniProt P0DPI1); assay: Inhibition of BoNT/A light chain metalloprotease activity
Sequence (P0DPI1 2-448 limits assumed): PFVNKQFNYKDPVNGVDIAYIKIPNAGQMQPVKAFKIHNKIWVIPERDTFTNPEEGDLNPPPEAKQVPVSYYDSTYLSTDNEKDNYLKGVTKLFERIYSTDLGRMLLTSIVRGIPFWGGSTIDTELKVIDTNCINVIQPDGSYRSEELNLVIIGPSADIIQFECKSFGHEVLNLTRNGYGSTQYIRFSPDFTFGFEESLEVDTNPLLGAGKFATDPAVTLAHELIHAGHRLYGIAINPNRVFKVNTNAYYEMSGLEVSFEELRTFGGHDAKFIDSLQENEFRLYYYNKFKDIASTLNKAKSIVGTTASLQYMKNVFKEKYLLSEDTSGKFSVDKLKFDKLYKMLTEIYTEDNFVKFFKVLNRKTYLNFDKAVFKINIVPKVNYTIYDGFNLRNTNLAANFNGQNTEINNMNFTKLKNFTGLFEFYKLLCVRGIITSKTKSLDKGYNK
Where a SMILES comes first, the peptide text is derived from it. The star is where a group is joined. Propanoyl(2S-SH,3-Ph) = O=C([C@@H](S)Cc1ccccc1)*
Reported Ki values for the following molecules.

Answered examples (8):
>  <molecule>
C[C@H](NC(=O)[C@H](CCCNC(=N)N)NC(=O)[C@@H](S)Cc1ccccc1)C(=O)N[C@H](C(=O)O)[C@@H](C)O

>  <Ki>
30000 nM

$$$$
>  <molecule>
CSCC[C@H](NC(=O)[C@H](CCCCN)NC(=O)[C@@H](NC(=O)[C@@H](NC(=O)[C@H](CCCN=C(N)N)NC(=O)[C@@H](S)Cc1ccccc1)C(C)C)[C@@H](C)O)C(=O)N[C@@H](CC(C)C)C(=O)O ({Propanoyl(2S-SH,3-Ph)}-RVTKML-OH)

>  <Ki>
2000 nM

$$$$
>  <molecule>
CSCC[C@H](NC(=O)[C@H](CCCCN)NC(=O)[C@@H](NC(=O)[C@H](C)NC(=O)[C@H](CCCN=C(N)N)NC(=O)[C@@H](S)Cc1ccccc1)[C@@H](C)O)C(=O)O ({Propanoyl(2S-SH,3-Ph)}-RATKM-OH)

>  <Ki>
400 nM

$$$$
>  <molecule>
CSCC[C@H](NC(=O)[C@H](CCCCN)NC(=O)[C@@H](NC(=O)[C@H](C)NC(=O)[C@H](CCCNC(=N)N)NC(=O)[C@@H](S)Cc1ccccc1)[C@@H](C)O)C(=O)N[C@@H](CC(C)C)C(=O)NCC(=O)N[C@@H](CO)C(=O)NCC(=O)O ({Propanoyl(2S-SH,3-Ph)}-RATKMLGSG-OH)

>  <Ki>
300 nM

$$$$
>  <molecule>
CC(C)C[C@H](NC(=O)[C@H](C)NC(=O)[C@H](CCCCN)NC(=O)[C@@H](NC(=O)[C@H](C)NC(=O)[C@H](CCCNC(=N)N)NC(=O)[C@@H](S)Cc1ccccc1)[C@@H](C)O)C(=O)O ({Propanoyl(2S-SH,3-Ph)}-RATKAL-OH)

>  <Ki>
700 nM

$$$$
>  <molecule>
CSCC[C@H](NC(=O)[C@H](CCCCN)NC(=O)[C@@H](NC(=O)[C@H](C)NC(=O)[C@H](CCCNC(=N)N)NC(=O)[C@@H](S)Cc1ccccc1)[C@@H](C)O)C(=O)N[C@@H](CC(C)C)C(=O)O ({Propanoyl(2S-SH,3-Ph)}-RATKML-OH)

>  <Ki>
300 nM

$$$$
>  <molecule>
C(=C\c1cc2ccc(C3=NCCN3)cc2[nH]1)/c1ccc2cc(C3=NCCN3)[nH]c2c1

>  <Ki>
10000 nM

$$$$
>  <molecule>
CSCC[C@H](NC(=O)[C@H](CCCCN)NC(=O)[C@H](C)NC(=O)[C@H](C)NC(=O)[C@H](CCCNC(=N)N)NC(=O)[C@@H](S)Cc1ccccc1)C(=O)N[C@@H](CC(C)C)C(=O)O ({Propanoyl(2S-SH,3-Ph)}-RAAKML-OH)

>  <Ki>
700 nM

$$$$

Name the recorded Ki for CSCC[C@H](NC(=O)[C@H](CCCCN)NC(=O)[C@@H](NC(=O)[C@H](C)NC(=O)[C@H](CCCNC(=N)N)NC(=O)[C@@H](N)CS)[C@@H](C)O)C(=O)N[C@@H](CC(C)C)C(=O)O (H-CRATKML-OH) . 2000 nM

Name the recorded Ki for C[C@H](NC(=O)[C@H](CCCNC(=N)N)NC(=O)[C@@H](S)Cc1ccccc1)C(=O)O . 60000 nM
